- System: Wolbachia pipientis
- Experiment description: Anti-Wolbachia Cell-Based Screen
- Assay type: functional
- Design: scale not given: in the data most compounds retested in dose-response had high values
- Measurement parameters: 5 µM
Among all 48,000 compounds or so, about 13,000 (27%) showed an effect of 50% or more. This is one part of the list.
Known Percent Effect of a selection of molecules
Quick note: give the figure in %, leave out the unit.

Entry O=C(O)C(F)(F)F.O=C(c1cocn1)N1C[C@@H]2CN(Cc3ccco3)CCO[C@@H]2C1 , system Wolbachia pipientis: what Percent Effect was measured?
-2.402

New cases:
Entry O=C(c1cc(=O)[nH][nH]1)N1CCCC2(CCC(=O)N(C3CCCC3)C2)C1 (stereo not given) , system Wolbachia pipientis: what Percent Effect was measured?
-4.852

Entry c1nc2c(c(N3CCOC(Cn4cncn4)C3)n1)CCC2 (stereo not given) , system Wolbachia pipientis: what Percent Effect was measured?
-6.426

Entry Cn1cc(CN2C[C@@H]3CN(Cc4ccoc4)CCO[C@@H]3C2)cn1.O=C(O)C(F)(F)F.O=C(O)C(F)(F)F , system Wolbachia pipientis: what Percent Effect was measured?
1.152

Entry CCN(CC)CCNC(=O)c1ccc(Cl)c(NS(C)(=O)=O)c1 , system Wolbachia pipientis: what Percent Effect was measured?
-1.52

Entry CN(CC1COc2ccccc2O1)C(=O)NCCCn1ccnc1 (stereo not given) , system Wolbachia pipientis: what Percent Effect was measured?
-8.094

====

Known Percent Effect of a selection of compounds
- Test system: Wolbachia pipientis
- Experiment description: Anti-Wolbachia Cell-Based Screen
- Type: functional
- Design: scale not given: in the data most compounds retested in dose-response had high values
- Measurement parameters: 5 µM
Hit rate of the full screen: of about 48,000 compounds, about 13,000 (27%) showed an effect of 50% or more. Some of the results follow.
Quick note: give the figure in %, leave out the unit.

// worked examples, Percent Effect included
So what's the measured Percent Effect for this one? CSCc1cccc(S(=O)(=O)N2CCSCC2)c1
9.116

So what's the measured Percent Effect for this one? CCC(CC)C(=O)NCC1(NC(C)c2ccccc2)CCOCC1 (stereo not drawn)
-13.17

So what's the measured Percent Effect for this one? CCc1nnc(CN(C)Cc2nc(-c3ccccc3Cl)oc2C)o1
-2.214

So what's the measured Percent Effect for this one? CCCC1c2cccn2CCN1C(=O)c1cc(CC)no1 (stereo not drawn)
123.5

So what's the measured Percent Effect for this one? CNc1nc(C(=O)N2CCC3(CCCN(CCOC)C3=O)C2)cs1 (stereo not drawn)
-30.8

So what's the measured Percent Effect for this one? Cc1cc2c(=O)n(CC(=O)N3CCn4cccc4C3C(C)C)cnc2s1 (stereo not drawn)
139.9

So what's the measured Percent Effect for this one? Cc1cc2c(=O)n3c(nc2s1)CCN(C(=O)c1ccncc1)CC3
-15.49

So what's the measured Percent Effect for this one? Cc1ncsc1CCC(=O)N1CCn2cccc2C1c1cccnc1 (stereo not drawn)
2.617

So what's the measured Percent Effect for this one? CN(Cc1cccnc1)[C@@H]1CN(Cc2ccccn2)[C@@H]2CCCO[C@H]12
150.6

So what's the measured Percent Effect for this one? Cc1noc(CNC(=O)NCCOc2ccc(Cl)cc2)n1
-1.273

New cases:
So what's the measured Percent Effect for this one? CCC1c2ccc(C)n2CCN1C(=O)Cn1cnc2sc(C)cc2c1=O (stereo not drawn)
132.6

So what's the measured Percent Effect for this one? CSCc1cccc(S(=O)(=O)N2CCC(C)CC2)c1
-3.451

So what's the measured Percent Effect for this one? CCC1c2cccn2CCN1C(=O)c1ccc2nonc2c1 (stereo not drawn)
-3.198

So what's the measured Percent Effect for this one? CCN1CC(CN(C)Cc2nc(-c3cccc(C)c3)oc2C)CC1=O (stereo not drawn)
105.1

So what's the measured Percent Effect for this one? CCN(CCn1cccn1)Cc1nc(-c2cccc(C)c2)oc1C
-6.378

====

Known Percent Effect of a selection of compounds
- System: Wolbachia pipientis
- Experiment description: Anti-Wolbachia Cell-Based Screen
- Assay type: functional
- Design: scale not given: in the data most compounds retested in dose-response had high values
- Measurement parameters: 5 µM
The campaign covered roughly 48,000 compounds. About 13,000 (27%) showed an effect of 50% or more. This is one part of the list.
Form entry: enter the amount, then its unit.

Entry COc1ccccc1C(=O)NC(c1ccccn1)[C@H]1CC[C@H](CN)CC1 (some centres undefined) , system Wolbachia pipientis: what Percent Effect was measured?
100.4%

New cases:
Entry CCCN(C)C(=O)c1cc(Br)cc(S(=O)(=O)N2CCOCC2)c1F , system Wolbachia pipientis: what Percent Effect was measured?
6.063%

Entry COc1ccc(NC(C)C(=O)N2CCN(Cc3ccccc3)CC2)cn1 (centres undefined) , system Wolbachia pipientis: what Percent Effect was measured?
10.35%

Entry CCC(NC(=O)CN(C)Cc1ccc(C)o1)c1ccc(Br)cc1 (centres undefined) , system Wolbachia pipientis: what Percent Effect was measured?
7.959%

Entry CN(Cc1ccc(F)cc1)CC1(O)CCCN(CC(C)(C)C)C1=O (centres undefined) , system Wolbachia pipientis: what Percent Effect was measured?
55.08%

Entry CC(=O)N1CC(C(=O)Nc2cccc(OC(F)F)c2)C1 , system Wolbachia pipientis: what Percent Effect was measured?
13.11%

Entry COc1ccccc1C(=O)NC(CC(=O)O)c1cccs1 (centres undefined) , system Wolbachia pipientis: what Percent Effect was measured?
13.12%

====

- System: Wolbachia pipientis
- Experiment description: Anti-Wolbachia Cell-Based Screen
- Format: functional
- Parameters: scale not given: in the data most compounds retested in dose-response had high values
- Measurement parameters: 5 µM
About 13,000 (27%) of roughly 48,000 compounds showed an effect of 50% or more. This is one part of the list.
Quantity measured: Percent Effect (%)
Quick note: give the figure in %, leave out the unit.

// worked examples, Percent Effect included
So what's the measured Percent Effect for this one? COc1cc(CCC(=O)N2CCC(c3cc4ncccc4[nH]3)CC2)on1
86.08

So what's the measured Percent Effect for this one? O=C(CCn1ccc(=O)[nH]c1=O)N1CCC(Oc2ccccn2)CC1
4.456

So what's the measured Percent Effect for this one? COc1cc(CCC(=O)N2CCC(c3cc4nccnc4[nH]3)CC2)on1
109.8

So what's the measured Percent Effect for this one? O=C(CCc1cc(O)no1)N1CCCC(COc2ccc(F)cc2)C1 (stereo unspecified)
-11.68

So what's the measured Percent Effect for this one? C=Cc1ccc(C(=O)N2CCCC(Nc3ccc(OC)cc3)C2)cc1 (stereo unspecified)
13.35

So what's the measured Percent Effect for this one? COc1ccc(C(=O)N2C[C@@H](O)[C@H](NCCc3ncccc3C)C2)cc1
97.07

So what's the measured Percent Effect for this one? CCC(C)(C)NC(=O)c1ccc(-c2ccco2)[nH]c1=O
-18

So what's the measured Percent Effect for this one? COc1ccc2c(c1)nc1n2[C@@H](CNCc2ncccc2C)COC1
-5.483

So what's the measured Percent Effect for this one? COc1ccc(C2CCN(C(=O)c3ncccc3OC(C)C)C2)cc1 (stereo unspecified)
4.794

So what's the measured Percent Effect for this one? COc1ccc(C(=O)N2C[C@@H](O)[C@H](NCc3ncccc3C)C2)cc1
82.18

New cases:
So what's the measured Percent Effect for this one? COc1ccc(C(=O)N2C[C@@H](O)[C@H](NCc3cnc(C)cn3)C2)cc1
111.7

====

- System: Wolbachia pipientis
- Experiment description: Anti-Wolbachia Cell-Based Screen
- Assay type: functional
- Set-up: scale not given: in the data most compounds retested in dose-response had high values
- Measurement parameters: 5 µM
In all, about 48,000 compounds went through this assay and about 13,000 (27%) showed an effect of 50% or more. This is one part of the list.
Quantity measured: Percent Effect (%)
Quick note: give the figure in %, leave out the unit.

Entry Cc1nc(-c2ccccc2)sc1CSCCS(C)(=O)=O , system Wolbachia pipientis: what Percent Effect was measured?
5.255

Entry Cc1cc(C(=O)NCC(C)C)c2c(C3CCCN3)noc2n1 (stereo unspecified) , system Wolbachia pipientis: what Percent Effect was measured?
114.1

Entry COc1cccc(CC(=O)N2CC[C@@H]3CN(C)S(=O)(=O)[C@@H]3CC2)c1 , system Wolbachia pipientis: what Percent Effect was measured?
102.6

Entry C/C=C(\C)CN1C[C@H](NC(=O)c2cnc(O)cn2)C[C@H]1C(=O)NCC , system Wolbachia pipientis: what Percent Effect was measured?
-10.14

Entry Cc1ccccc1CNC(=O)N1CC[C@@H]2CN(C)S(=O)(=O)[C@@H]2CC1 , system Wolbachia pipientis: what Percent Effect was measured?
-7.794

Entry Cc1ncc(C(=O)N2CCC(N3C[C@@H](C)O[C@@H](C)C3)CC2)c(=O)[nH]1 , system Wolbachia pipientis: what Percent Effect was measured?
-16.5

====

Known Percent Effect of a selection of molecules
- Tested on: Wolbachia pipientis
- Experiment description: Anti-Wolbachia Cell-Based Screen
- Type: functional
- Parameters: scale not given: in the data most compounds retested in dose-response had high values
- Measurement parameters: 5 µM
The campaign covered roughly 48,000 compounds. About 13,000 (27%) showed an effect of 50% or more. Some of the results follow.
Quick note: give the figure in %, leave out the unit.

// worked examples, Percent Effect included
So what's the measured Percent Effect for this one? CC(=O)N1CCCN(C(=O)c2cnc3n[nH]c(C)c3c2)CC1
0.885

So what's the measured Percent Effect for this one? O[C@H]1[C@H](n2cc(-c3cncnc3)nn2)c2ccccc2C12CCNCC2
-31.96

So what's the measured Percent Effect for this one? Cc1noc(C)c1CCC(=O)NC(C)c1nnc2n1CCCCC2 (stereo unspecified)
-4.207

So what's the measured Percent Effect for this one? CC(NC(=O)Cc1cccs1)c1nnc2n1CCCCC2 (stereo unspecified)
-4.411

So what's the measured Percent Effect for this one? CN(C)C(C(=O)N1CC(Oc2ccccc2F)C1)c1ccccc1F (stereo unspecified)
-4.147

New cases:
So what's the measured Percent Effect for this one? CC(NC(=O)Cc1cccs1)c1nnc2n1CCC2 (stereo unspecified)
95.59

So what's the measured Percent Effect for this one? Cc1cnn(CC2CCCCN2C(=O)c2cnc3n[nH]c(C)c3c2)c1 (stereo unspecified)
131.8

So what's the measured Percent Effect for this one? Cc1ccc(CN2CCC3(CC2)OC(C(=O)N(C)C)c2ccccc23)o1.O=C(O)C(F)(F)F (stereo unspecified)
8.053
